# Condition Context: in o-xylene, 326.25 K
Property Label: solubility (mole fraction)
Please reply with the number alone, leaving off any unit.

Lab note: measured solubility (mole fraction) of COc1cc(Cl)c(OC)cc1N was 0.0549

====

# Condition Context: in p-xylene, 317.65 K
Property Label: solubility (mole fraction)
Provide a numeric answer; units are not to be included.

// recorded solubility (mole fraction) for COc1cc(Cl)c(OC)cc1N : 0.031

====

# Condition Context: in o-xylene, 283.55 K
Property Label: solubility (mole fraction)
Give your answer as a number; write no unit.

Given item COc1cc([N+](=O)[O-])c(OC)cc1Cl , the value recorded as its solubility (mole fraction) is 0.0107

====

# Condition Context: in methanol, 279.35 K
Property Label: solubility (mole fraction)
The answer should be written as a number, with no unit following it.

Form: compound = COc1cc([N+](=O)[O-])c(OC)cc1Cl ; solubility (mole fraction) = 0.000449

====

# Condition Context: in p-xylene, 298.45 K
Property Label: solubility (mole fraction)
// keep it numeric: no unit symbol after the value

The reported value for COc1cc(Cl)c(OC)cc1N in terms of solubility (mole fraction) is 0.0134

====

# Condition Context: in p-xylene, 336.65 K
Property Label: solubility (mole fraction)
Please reply with the value in numeric form only.

Sample COc1cc([N+](=O)[O-])c(OC)cc1Cl ; solubility (mole fraction) observed: 0.07

====

# Condition Context: in ethanol, 328.65 K
Property Label: solubility (mole fraction)
Write the number on its own, no unit after it.

Briefly, solubility (mole fraction) measured for COc1cc(Cl)c(OC)cc1N : 0.0289

====

# Condition Context: in o-xylene, 313.25 K
Property Label: solubility (mole fraction)
Give the value as a plain number.

In plain terms, COc1cc([N+](=O)[O-])c(OC)cc1Cl has a documented solubility (mole fraction) of 0.0323

====

# Condition Context: in ethanol, 310.25 K
Property Label: solubility (mole fraction)
// no unit string in output, number only

solubility (mole fraction) in this record for COc1cc(Cl)c(OC)cc1N : 0.0115

====

# Condition Context: in methanol, 282.75 K
Property Label: solubility (mole fraction)
A bare number is all that is needed in reply.

Lab note: COc1cc([N+](=O)[O-])c(OC)cc1Cl gave solubility (mole fraction) of 0.000517

====

# Condition Context: in ethanol, 336.65 K
Property Label: solubility (mole fraction)
Lab note: write the figure by itself, no unit.

The recorded solubility (mole fraction) for entry COc1cc([N+](=O)[O-])c(OC)cc1Cl equals 0.00764

====

# Condition Context: in p-xylene, 289.55 K
Property Label: solubility (mole fraction)
Form field (numeric): enter value without unit.

The molecule listed as COc1cc([N+](=O)[O-])c(OC)cc1Cl shows solubility (mole fraction) equal to 0.0126

====

# Condition Context: in m-xylene, 286.15 K
Property Label: solubility (mole fraction)
Lab note: write the figure by itself, no unit.

The recorded solubility (mole fraction) for entry COc1cc([N+](=O)[O-])c(OC)cc1Cl equals 0.00994

====

# Condition Context: in o-xylene, 307.05 K
Property Label: solubility (mole fraction)

Input COc1cc(Cl)c(OC)cc1N . Output solubility (mole fraction): 0.0214

// provenance: BigSolDB 2.1
